Parameter: mass density. Scope: all listed entries.
- condition.set: 298.15 K; 101.33 kPa; Liquid
Numbers after ± are expanded uncertainties.
observed.property: mass density

> print(dat)
                        compound            meas.value
1        CCCCCCCCCCCC [dodecane]   745.32 ± 0.91 kg/m3
2                CCCCCC [hexane]    655.06 ± 1.1 kg/m3
3            c1ccsc1 [thiophene]  1058.59 ± 0.28 kg/m3
4  CCCCCCCCCCCCCCCC [hexadecane]   771.15 ± 0.85 kg/m3
5              CCCCCCC [heptane]   679.47 ± 0.66 kg/m3
